Measured values drawn from patent US12492188B2 for this set.

# log10 IC50 per record follows
- Study Target: human TLR9 (Homo sapiens, UniProt Q9NR96)
- Construct: host or cells: HEK-Blue cells (HEK293-derived reporter line)
- Sequence (Q9NR96 26-1032): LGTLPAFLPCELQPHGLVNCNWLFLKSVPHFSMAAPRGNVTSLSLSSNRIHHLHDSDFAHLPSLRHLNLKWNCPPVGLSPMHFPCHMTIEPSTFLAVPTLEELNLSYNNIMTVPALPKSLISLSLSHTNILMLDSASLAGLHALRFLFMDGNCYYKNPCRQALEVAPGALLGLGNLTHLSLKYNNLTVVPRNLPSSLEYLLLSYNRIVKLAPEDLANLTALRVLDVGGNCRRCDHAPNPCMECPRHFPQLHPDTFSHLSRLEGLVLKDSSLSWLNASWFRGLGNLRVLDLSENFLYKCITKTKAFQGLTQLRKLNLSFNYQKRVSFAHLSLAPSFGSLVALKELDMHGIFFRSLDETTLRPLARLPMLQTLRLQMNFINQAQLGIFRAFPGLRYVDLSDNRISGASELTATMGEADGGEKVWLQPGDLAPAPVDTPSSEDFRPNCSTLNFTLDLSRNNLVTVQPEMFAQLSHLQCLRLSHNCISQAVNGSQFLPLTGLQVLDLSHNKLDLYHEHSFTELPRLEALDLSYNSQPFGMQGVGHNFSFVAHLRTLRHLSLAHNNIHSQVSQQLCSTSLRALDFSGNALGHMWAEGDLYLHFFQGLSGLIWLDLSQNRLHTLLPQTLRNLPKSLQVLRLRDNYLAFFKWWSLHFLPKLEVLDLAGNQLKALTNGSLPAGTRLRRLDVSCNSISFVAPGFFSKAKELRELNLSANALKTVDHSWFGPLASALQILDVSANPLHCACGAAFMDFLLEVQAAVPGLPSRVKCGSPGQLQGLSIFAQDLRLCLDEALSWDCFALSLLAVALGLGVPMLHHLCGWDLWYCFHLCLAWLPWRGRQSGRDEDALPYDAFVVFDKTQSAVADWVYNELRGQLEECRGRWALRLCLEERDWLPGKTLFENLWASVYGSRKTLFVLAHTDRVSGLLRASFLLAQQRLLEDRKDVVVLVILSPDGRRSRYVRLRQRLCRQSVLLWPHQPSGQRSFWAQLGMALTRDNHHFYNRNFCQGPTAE
- Protocol Details: TLR9 inhibition reporter assay (HEK-Blue cells, secreted embryonic alkaline phosphatase reporter)
- Format: cell-based
- Experimental Setup: HEK-Blue cells overexpressing human TLR9, stimulated with ODN2006 5 nM; read-out: TLR 9 IC50
Quantity Measured: log10 IC50 (log10 of the value in nM)

# Compound, Study Target, log10 IC50
rows = [
    ("COc1ccc(-c2nc3c(C)cc(C4CCN(C5CCN(CC(C)C)CC5)CC4)cc3[nH]2)cc1Cl [Example 64]", "human TLR9 (Homo sapiens, UniProt Q9NR96)", 1.96),
    ("Cn1c(-c2ccc(S(C)(=O)=O)cc2)nc2cc(C3CCN(C4CC5CCC(C4)N5C4CCC4)CC3)c(F)cc21 (centres unmarked) [Example 251]", "human TLR9 (Homo sapiens, UniProt Q9NR96)", 1.85),
    ("CC(C)CN1C2CCC1CC(N1CCC(c3cc4nc(-c5ccc(S(C)(=O)=O)cc5)n(C)c4cc3F)CC1)C2 (centres unmarked) [Example 248]", "human TLR9 (Homo sapiens, UniProt Q9NR96)", 1.89),
    ("Cc1cc(CN2CCC(c3cc(C)c4nc(-c5ccc(S(C)(=O)=O)cc5)n(C)c4c3)CC2)cc(C)n1 [Example 418]", "human TLR9 (Homo sapiens, UniProt Q9NR96)", 3.40),
    ("CC(C)N1CCC(N2CCC(c3cc4nc(-c5ccc(S(C)(=O)=O)cc5)n(C)c4cc3F)CC2)CC1 [Example 99]", "human TLR9 (Homo sapiens, UniProt Q9NR96)", 2.55),
    ("Cc1cc(C2CCN(C3CC4CCC(C3)N4C3CCC3)CC2)cc2c1nc(-c1ccc(S(C)(=O)=O)c(F)c1)n2C (single isomer, unassigned) [Example 124]", "human TLR9 (Homo sapiens, UniProt Q9NR96)", 2.76),
    ("Cn1c(-c2ccc(S(C)(=O)=O)cc2)nc2cc(F)c(C3CCN(C4CCN(C5CC5)CC4)CC3)cc21 [Example 222]", "human TLR9 (Homo sapiens, UniProt Q9NR96)", 2.12),
    ("Cn1c(-c2ccc(S(C)(=O)=O)cc2)nc2ccc(C3CCN(C4CCN(C5CCOCC5)CC4)CC3)c(F)c21 [Example 264]", "human TLR9 (Homo sapiens, UniProt Q9NR96)", 2.45),
]
